Catalogue of pKi values
# Study target: Transmembrane protease serine 11D (Homo sapiens, UniProt O60235)
# Sequence (O60235 whole entry): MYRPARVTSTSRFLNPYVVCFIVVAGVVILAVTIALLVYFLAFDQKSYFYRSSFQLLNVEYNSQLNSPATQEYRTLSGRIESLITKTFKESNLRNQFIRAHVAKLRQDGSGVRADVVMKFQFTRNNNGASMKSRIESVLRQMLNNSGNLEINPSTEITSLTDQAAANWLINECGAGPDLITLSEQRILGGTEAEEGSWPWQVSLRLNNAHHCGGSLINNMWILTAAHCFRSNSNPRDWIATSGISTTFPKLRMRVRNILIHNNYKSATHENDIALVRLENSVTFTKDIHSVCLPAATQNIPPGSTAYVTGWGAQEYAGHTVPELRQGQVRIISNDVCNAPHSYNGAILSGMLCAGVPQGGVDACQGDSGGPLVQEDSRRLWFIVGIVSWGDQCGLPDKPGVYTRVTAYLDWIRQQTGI
# Method: Inhibition of human recombinant airway trypsin-like protease HAT using D-cyclohexylalanine-Pro-Arg-AMC as substrate by fluorescence plate reader analysis
The scale used: pKi is minus the common logarithm of the concentration in molar units.

Worked cases, pKi given:
* N=C(N)c1ccc(CNC(=O)[C@@H]2CCCN2C(=O)[C@@H](CC(=O)N2CCN(C(=O)OCc3ccccc3)CC2)NS(=O)(=O)Cc2ccccc2)cc1 | 6.87
* CC(C)N1CCN(C(=O)C[C@@H](NS(=O)(=O)Cc2ccccc2)C(=O)N2CCC[C@H]2C(=O)NCc2ccc(C(=N)N)cc2)CC1 | 6.66

stdin: # pKi lookup, item `CC(C)[C@H](NCc1ccc(C(=N)N)cc1)C(=O)[C@@H](CCCNC(=N)N)NS(=O)(=O)Cc1ccccc1`
stdout: 7.66

stdin: Would you mind telling me what pKi value was observed for `N=C(N)c1ccc(CNC(=O)[C@@H]2CCCN2C(=O)[C@@H](CCc2ccccc2)NS(=O)(=O)Cc2ccccc2)cc1` ?
stdout: 7.20

stdin: pKi lookup needed for `N=C(N)c1ccc(CNC(=O)[C@@H]2CCCN2C(=O)[C@@H](CC(=O)N2CCOCC2)NS(=O)(=O)Cc2ccccc2)cc1` , thanks.
stdout: 6.74

stdin: # lookup: pKi of `CC(C)(C)OC(=O)C[C@@H](NS(=O)(=O)Cc1ccccc1)C(=O)N1CCC[C@H]1C(=O)NCc1ccc(C(=N)N)cc1`
stdout: 7.42

stdin: Sample `N=C(N)c1ccc(CNC(=O)[C@@H]2CCCN2C(=O)[C@@H](CC2CCCCC2)NS(=O)(=O)Cc2ccccc2)cc1` — what was its pKi?
stdout: 6.97

stdin: What does the data say about its pKi? Entry: `CN(C)CCCN1CCN(C(=O)C[C@@H](NS(=O)(=O)Cc2ccccc2)C(=O)N2CCC[C@H]2C(=O)NCc2ccc(C(=N)N)cc2)CC1`
stdout: 6.83

stdin: Please look up its pKi: `N=C(N)c1ccc(CNC(=O)[C@@H]2CCCN2C(=O)[C@@H](CC(=O)N2CCNCC2)NS(=O)(=O)Cc2ccccc2)cc1`
stdout: 6.69
